- System: Past. multocida PA1
- assay.comment: MIC against veterinary bacteria in vitro
- cond: Pasteurella multocida, PA1, 18 h
experimental.readout: MIC (µg/mL)
Numbers only, in µg/mL.

See these solved cases before continuing.
{"compound": "C/C(=C\\c1ncc(-c2ccc(S(C)(=O)=O)cc2)o1)C[C@@H]1OC[C@H](C[C@@H]2O[C@H]2[C@@H](C)[C@H](C)O)[C@@H](O)[C@H]1O [Example 10]", "MIC, µg/mL": 5}
{"compound": "C/C(=C\\c1ncc(-c2ccccc2)o1)C[C@@H]1OC[C@H](C[C@@H]2O[C@H]2[C@@H](C)[C@H](C)O)[C@@H](O)[C@H]1O [Example 1, 2-(1-normon-2-yl)-5-phenyloxazole A]", "MIC, µg/mL": 10}
{"compound": "COC(=O)c1ccc(-c2cnc(/C=C(\\C)C[C@@H]3OC[C@H](C[C@@H]4O[C@H]4[C@@H](C)[C@H](C)O)[C@@H](O)[C@H]3O)o2)cc1 [Example 16]", "MIC, µg/mL": 40}
{"compound": "C/C(=C\\c1ncc(-c2ccc(C#N)cc2)o1)C[C@@H]1OC[C@H](C[C@@H]2O[C@H]2[C@@H](C)[C@H](C)O)[C@@H](O)[C@H]1O [Example 21]", "MIC, µg/mL": 2.5}
{"compound": "C/C(=C\\c1ncc(-c2ccc(S(=O)(=O)N(C)C)cc2)o1)C[C@@H]1OC[C@H](C[C@@H]2O[C@H]2[C@@H](C)[C@H](C)O)[C@@H](O)[C@H]1O [Example 24]", "MIC, µg/mL": 5}

Give one value of MIC per listed compound.
1. C/C(=C\c1ncc(-c2ccc(CO)cc2)o1)C[C@@H]1OC[C@H](C[C@@H]2O[C@H]2[C@@H](C)[C@H](C)O)[C@@H](O)[C@H]1O [Example 13]
2. C/C(=C\c1ncc(-c2ccc(Br)s2)o1)C[C@@H]1OC[C@H](C[C@@H]2O[C@H]2[C@@H](C)[C@H](C)O)[C@@H](O)[C@H]1O [Example 28]
3. C/C(=C\c1ncc(C)o1)C[C@@H]1OC[C@H](C[C@@H]2O[C@H]2[C@@H](C)[C@H](C)O)[C@@H](O)[C@H]1O [Example 14, 5-Methyl-2-(1-normon-2-yl) oxazole A]
4. C/C(=C\c1ncc(-c2ccc([N+](=O)[O-])cc2)o1)C[C@@H]1OC[C@H](C[C@@H]2O[C@H]2[C@@H](C)[C@H](C)O)[C@@H](O)[C@H]1O [Example 3]

Reply:
[2.5, 20, 10, 5]

Give one value of MIC per listed compound.
1. CSc1ccc(-c2cnc(/C=C(\C)C[C@@H]3OC[C@H](C[C@@H]4O[C@H]4[C@@H](C)[C@H](C)O)[C@@H](O)[C@H]3O)o2)cc1 [Example 9]
2. C/C(=C\c1ncc(Cc2ccccc2)o1)C[C@@H]1OC[C@H](C[C@@H]2O[C@H]2[C@@H](C)[C@H](C)O)[C@@H](O)[C@H]1O [Example 27, 5-Benzyl-2-(1-normon-2-yl)oxazole A]
3. C/C(=C\c1nc(C)c(C)o1)C[C@@H]1OC[C@H](C[C@@H]2O[C@H]2[C@@H](C)[C@H](C)O)[C@@H](O)[C@H]1O [Example 39, 4,5-Dimethyl-2-(1-normon-2-yl)oxazole A]

Reply:
1. 20
2. 20
3. 80

---

For each of the molecules below, state its MIC.
- Test system: Strep. pyogenes R80/421-A
- assay.comment: MIC against human bacteria in vitro
- Format: cell-based
- cond: Streptococcus pyogenes; Strep. pyogenes R80/421-A; 5% chocolated horse blood agar, 18 hours; read-out: MIC
Give bare numbers, in µg/mL.

{"molecule": "C/C(=C\\c1cc(-c2ccccc2)no1)C[C@@H]1OC[C@H](C[C@@H]2O[C@H]2[C@@H](C)[C@H](C)O)[C@@H](O)[C@H]1O [Example 31, 5-(1-Normon-2-yl)-3-phenylisoxazole A]", "target.of.assay": "Strep. pyogenes R80/421-A", "MIC (µg/mL)": 128}
{"molecule": "COC(=O)c1ccc(-c2cnc(/C=C(\\C)C[C@@H]3OC[C@H](C[C@@H]4O[C@H]4[C@@H](C)[C@H](C)O)[C@@H](O)[C@H]3O)o2)cc1 [Example 16]", "target.of.assay": "Strep. pyogenes R80/421-A", "MIC (µg/mL)": 4}
{"molecule": "CSc1cccc(-c2cnc(/C=C(\\C)C[C@@H]3OC[C@H](C[C@@H]4O[C@H]4[C@@H](C)[C@H](C)O)[C@@H](O)[C@H]3O)o2)c1 [Example 22]", "target.of.assay": "Strep. pyogenes R80/421-A", "MIC (µg/mL)": 8}
{"molecule": "C/C(=C\\c1ncc(-c2ccc(Br)cc2)o1)C[C@@H]1OC[C@H](C[C@@H]2O[C@H]2[C@@H](C)[C@H](C)O)[C@@H](O)[C@H]1O [Example 18]", "target.of.assay": "Strep. pyogenes R80/421-A", "MIC (µg/mL)": 2}
{"molecule": "C/C(=C\\c1ncc(-c2ccc(CO)cc2)o1)C[C@@H]1OC[C@H](C[C@@H]2O[C@H]2[C@@H](C)[C@H](C)O)[C@@H](O)[C@H]1O [Example 13]", "target.of.assay": "Strep. pyogenes R80/421-A", "MIC (µg/mL)": 4}

Give one value of MIC per listed molecule.
1. C/C(=C\c1ncc(-c2ccc([N+](=O)[O-])cc2)o1)C[C@@H]1OC[C@H](C[C@@H]2O[C@H]2[C@@H](C)[C@H](C)O)[C@@H](O)[C@H]1O [Example 3]
2. C/C(=C\c1ncc(-c2ccc(S(C)(=O)=O)cc2)o1)C[C@@H]1OC[C@H](C[C@@H]2O[C@H]2[C@@H](C)[C@H](C)O)[C@@H](O)[C@H]1O [Example 10]

Reply:
0.5
8

Give one value of MIC per listed molecule.
1. C/C(=C\c1ncc(-c2ccc(C#N)cc2)o1)C[C@@H]1OC[C@H](C[C@@H]2O[C@H]2[C@@H](C)[C@H](C)O)[C@@H](O)[C@H]1O [Example 21]
2. COc1ccc(-c2cnc(/C=C(\C)C[C@@H]3OC[C@H](C[C@@H]4O[C@H]4[C@@H](C)[C@H](C)O)[C@@H](O)[C@H]3O)o2)cc1 [Example 4]
3. C/C(=C\c1ncc(Cc2ccccc2)o1)C[C@@H]1OC[C@H](C[C@@H]2O[C@H]2[C@@H](C)[C@H](C)O)[C@@H](O)[C@H]1O [Example 27, 5-Benzyl-2-(1-normon-2-yl)oxazole A]
4. C/C(=C\c1ncc(-c2ccccc2)o1)C[C@@H]1OC[C@H](C[C@@H]2O[C@H]2[C@@H](C)[C@H](C)O)[C@@H](O)[C@H]1O [Example 1, 2-(1-normon-2-yl)-5-phenyloxazole A]
5. C/C(=C\c1ncc(-c2ccc(S(=O)(=O)N(C)C)cc2)o1)C[C@@H]1OC[C@H](C[C@@H]2O[C@H]2[C@@H](C)[C@H](C)O)[C@@H](O)[C@H]1O [Example 24]
6. C/C(=C\c1ncc(C)o1)C[C@@H]1OC[C@H](C[C@@H]2O[C@H]2[C@@H](C)[C@H](C)O)[C@@H](O)[C@H]1O [Example 14, 5-Methyl-2-(1-normon-2-yl) oxazole A]

Reply:
1: 1; 2: 5; 3: 4; 4: 1; 5: 2; 6: 32

Give one value of MIC per listed molecule.
1. C/C(=C\c1ncc(CCCCCCCCO)o1)C[C@@H]1OC[C@H](C[C@@H]2O[C@H]2[C@@H](C)[C@H](C)O)[C@@H](O)[C@H]1O [Example 19]
2. C/C(=C\c1cc(-c2ccccc2)on1)C[C@@H]1OC[C@H](C[C@@H]2O[C@H]2[C@@H](C)[C@H](C)O)[C@@H](O)[C@H]1O [Example 34, 3-(1-Normon-2-yl)-5-phenylisoxazole A]
3. COC(=O)CCCCCCCc1cnc(/C=C(\C)C[C@@H]2OC[C@H](C[C@@H]3O[C@H]3[C@@H](C)[C@H](C)O)[C@@H](O)[C@H]2O)o1 [Example 7]
4. C/C(=C\c1ncc(-c2cccc(S(C)(=O)=O)c2)o1)C[C@@H]1OC[C@H](C[C@@H]2O[C@H]2[C@@H](C)[C@H](C)O)[C@@H](O)[C@H]1O [Example 23]
5. C/C(=C\c1ncc(CCCCCCCC(=O)O)o1)C[C@@H]1OC[C@H](C[C@@H]2O[C@H]2[C@@H](C)[C@H](C)O)[C@@H](O)[C@H]1O [Example 12]
6. C/C(=C\c1ncc(-c2ccc([S+](C)[O-])cc2)o1)C[C@@H]1OC[C@H](C[C@@H]2O[C@H]2[C@@H](C)[C@H](C)O)[C@@H](O)[C@H]1O (some centres unmarked) [Example 11]
7. C/C(=C\c1ncc(-c2cccc([S+](C)[O-])c2)o1)C[C@@H]1OC[C@H](C[C@@H]2O[C@H]2[C@@H](C)[C@H](C)O)[C@@H](O)[C@H]1O (some centres unmarked) [Example 25]

Reply:
1. 2
2. 8
3. 25
4. 0.5
5. 16
6. 4
7. 2

Give one value of MIC per listed molecule.
1. C/C(=C\c1ncc(-c2ccc(C=O)cc2)o1)C[C@@H]1OC[C@H](C[C@@H]2O[C@H]2[C@@H](C)[C@H](C)O)[C@@H](O)[C@H]1O [Example 15]
2. C/C(=C\c1cc(C)on1)C[C@@H]1OC[C@H](C[C@@H]2O[C@H]2[C@@H](C)[C@H](C)O)[C@@H](O)[C@H]1O [Example 33, 5-Methyl-3-(1-normon-2-yl) isoxazole A]

Reply:
8
8
